This collection of values is drawn from patent US20200369728A1.

test: Circular dichroism (CD) analysis of alpha-helicity; type: physicochemical; details: 222 nm
Bridge positions count the residues as written; N and C are the ends. Square brackets hold non-standard residues; d marks the D form. Peptide text beside a SMILES is read from it. R8 = C=CCCCCCC[C@@](C)(N)C(=O)O; S5 = C=CCCC[C@](C)(N)C(=O)O
assay-endpoint: Molar Ellipticity TFE − Molar Ellipticity Benign (deg cm^2 dmol^−1)

1. CC(=O)N[C@@H](CC(C)C)C(=O)N[C@H](C(=O)N[C@@H](Cc1ccccc1)C(=O)N[C@]1(C)CCCCCCC=CCCC[C@@](C)(C(=O)N[C@@H](C)C(=O)N[C@@H](C)C(=O)N[C@@H](C)C(=O)N[C@@H](C)C(=O)N[C@H](C)C(N)=O)NC(=O)[C@H](CC(C)C)NC(=O)[C@H](CCC(N)=O)NC(=O)[C@H](C)NC(=O)[C@H](Cc2c[nH]c3ccccc23)NC(=O)[C@H](Cc2ccc(O)cc2)NC(=O)[C@H](C)NC1=O)[C@@H](C)O :: −18554.7
2. CC(=O)N[C@@H](CC(C)C)C(=O)N[C@H](C(=O)N[C@@H](Cc1ccccc1)C(=O)N[C@]1(C)CCCCCCC=CCCC[C@@](C)(C(=O)N[C@@H](CO)C(=O)N[C@@H](C)C(=O)N[C@@H](C)C(N)=O)NC(=O)[C@H](CC(C)C)NC(=O)[C@H](CCC(N)=O)NC(=O)[C@H](C)NC(=O)[C@H](Cc2c[nH]c3ccccc23)NC(=O)[C@H](Cc2ccc(O)cc2)NC(=O)[C@H](C)NC1=O)[C@@H](C)O [compound 11] (Ac-LTF[R8]AYWAQL[S5]SAA-NH2; staple 4-11) :: 16225.2
